# Assayed target: T1, MET928 (cMET protein derived from construct 25-928) (human, UniProt P08581 25-928)
# T1 construct: MET ectodomain, residues 1-24 are the leader; produced in Lec 8 cells; background text says the ectodomain is furin-cleaved into alpha (25-307) and beta chains; biotinylated form used in selections; also called MET928 extracellular domain; Met extracellular domain
# T1 sequence (P08581 25-928): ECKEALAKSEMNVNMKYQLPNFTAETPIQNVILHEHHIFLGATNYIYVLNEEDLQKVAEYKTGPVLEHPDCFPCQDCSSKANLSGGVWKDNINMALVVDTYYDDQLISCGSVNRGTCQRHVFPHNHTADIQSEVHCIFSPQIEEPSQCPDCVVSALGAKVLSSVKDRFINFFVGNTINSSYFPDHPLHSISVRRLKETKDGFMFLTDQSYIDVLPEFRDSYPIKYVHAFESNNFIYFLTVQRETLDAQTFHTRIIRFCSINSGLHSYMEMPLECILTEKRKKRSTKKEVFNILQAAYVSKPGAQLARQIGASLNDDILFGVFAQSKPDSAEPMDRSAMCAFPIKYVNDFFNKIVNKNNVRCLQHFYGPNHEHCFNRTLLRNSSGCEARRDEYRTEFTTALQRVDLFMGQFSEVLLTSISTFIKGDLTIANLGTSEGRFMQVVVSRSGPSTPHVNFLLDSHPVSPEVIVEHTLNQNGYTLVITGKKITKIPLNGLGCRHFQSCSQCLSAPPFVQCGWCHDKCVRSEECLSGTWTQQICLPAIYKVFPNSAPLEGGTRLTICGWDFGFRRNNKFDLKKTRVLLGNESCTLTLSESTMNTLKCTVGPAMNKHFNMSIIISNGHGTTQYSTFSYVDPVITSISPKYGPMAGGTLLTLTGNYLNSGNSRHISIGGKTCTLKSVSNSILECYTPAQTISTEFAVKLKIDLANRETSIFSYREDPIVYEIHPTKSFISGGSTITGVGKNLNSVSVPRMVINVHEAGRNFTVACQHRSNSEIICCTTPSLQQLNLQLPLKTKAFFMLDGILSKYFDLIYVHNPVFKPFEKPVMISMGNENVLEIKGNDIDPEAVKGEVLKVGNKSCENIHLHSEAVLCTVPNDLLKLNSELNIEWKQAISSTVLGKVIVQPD
# Assay method text: ELISA, soluble scFv
Test readout: binding result

111_E7 (scFv, not shown: 6xHis/tri-FLAG tags) scFv: QMQLVQSGAEVKKPGAPVKVSCKVSGYTFTDYYMHWVQQAPGKGLEWMGLVDPEDGETIYAEKFQGRVTITADTSTDTAYMELSSLRSEDTAVYYCATDATTPYWGMMMWGQGTLVTVSSLEGGGGSGGGGSGGGASDIQMTQSPSSLSASVGDRVTITCQASQDISNYLNWYQQKPGRAPKVLIYDASNLETGVPSRFSGSGSGTEFTLTISNLRPDDFATYYCQQGDSFPLTFGGGTKVEIK = binds
110_A5 (scFv, not shown: 6xHis/tri-FLAG tags) scFv: QMQLVQSGAEVKKPGAPVKVSCKVSGYTFTDYYMHWVQQAPGKGLEWMGLVDPEDGETIYAEKFQGRVTITADTSTDTAYMELSSLRSEDTAVYYCATDATTPYWYPFVWGQGTLVTVSSLEGGGGSGGGGSGGGASDIQMTQSPSSLSASVGDRVTITCQASQDISNYLNWYQQKPGRAPKVLIYDASNLETGVPSRFSGSGSGTEFTLTISNLRPDDFATYYCQQGDSFPLTFGGGTKVEIK = binds

Where do the numbers come from? From patent US20150147274A1.
